Where these numbers come from: PubChem BioAssay (EPA / NIEHS)

Read-out: Vascular cell adhesion molecule 1 (VCAM1), VCAM1 (gene 7412)
EXPERIMENT: BSK_hDFCGF_VCAM1: BioMAP Diversity Plus: hDFCGF Assay for Vascular cell adhesion molecule 1 (VCAM1) Biomarker Activity (AID 2283065)
CONDITIONS: primary human foreskin fibroblasts; actives raise or lower the signal
Calls of active or inactive are those of the source. How the source made its calls: active means hit-call score of the fitted dose curve at least 0.9, where 1 is the maximum; inactive means score below 0.9.
Use one of these outcomes when replying: active, inactive

CC(C)(C)OOC(C)(C)CCC(C)(C)OOC(C)(C)C
inactive
Nc1ccc(Cl)cc1N
active
C=CCc1ccc2c(c1)OCO2
inactive
[As]#[In]
inactive

IN: Dear colleague, could you share the recorded outcome for Nc1ccc(Cc2ccc(N)cc2)cc1 when you have a moment?
OUT: inactive

IN: Dear colleague, could you share the recorded outcome for N#CC(Br)(Br)C(N)=O when you have a moment?
OUT: inactive
